- System: U251 CNS
- protocol: NCI tumour cell line growth inhibition, 48 h
property_measured: TGI

// solved cases for TGI follow
molecule: CN(C)Cc1c[nH]c2nc[nH]c(=O)c12
property_measured: TGI
assay_value: > 100 µM
//
molecule: C=CCNC(=S)NC=C(C(N)=O)C(N)=O
property_measured: TGI
assay_value: > 100 µM
//
molecule: COC(=O)c1ccc(C)cc1C1CN=NC12Cc1c(C)cccc1C2=O (stereo unspecified)
property_measured: TGI
assay_value: > 100 µM
//
molecule: Cc1cc(NS(=O)(=O)c2ccc(NC(=O)c3ccc4nc5ccccc5c(Nc5ccc(S(N)(=O)=O)cc5)c4c3)cc2)no1
property_measured: TGI
assay_value: 64.7 µM
//
molecule: COc1cccc(/C=N/[N+](C)(C)C)c1O
property_measured: TGI
assay_value: > 10 µM

Would you kindly look at the next entry?
Ask: Dear colleague, I am looking for the recorded TGI of the following molecule: c1ccc(Nc2nnc(-c3ccccc3Nc3ccccc3-c3nnc(Nc4ccccc4)s3)s2)cc1
Result: > 100 µM

* * *

- System: M14 melanoma
- protocol: NCI tumour cell line growth inhibition, 48 h
Listed here are molecules together with their documented TGI.

// solved cases for TGI follow
molecule: CCCOC(=O)C1C(c2ccc(OC)cc2)NC(c2ccc(OC)cc2)C(C(=O)OCCC)S1(=O)=O (stereo not given)
target_entity: M14 melanoma
TGI: > 100 µM
--
molecule: CCOC(=O)/C(=C\n1c(=O)sc2ccccc21)C(=O)c1ccccc1
target_entity: M14 melanoma
TGI: > 100 µM
--
molecule: CC1=C(C(=O)Nc2cc(F)c(F)cc2F)C(c2ccc(N(C)C)cc2)C(C(=O)Nc2cc(F)c(F)cc2F)=C(C)N1
target_entity: M14 melanoma
TGI: > 100 µM
--
molecule: COc1cccc(C2c3cc4c(cc3OC(N3CCCC3)C2c2ccccc2)OCO4)c1O (stereo not given)
target_entity: M14 melanoma
TGI: 25.4 µM
--
molecule: CC1(C)C2CCC1(C)C(NC(=O)COCCOCC(N)=O)C2 (stereo not given)
target_entity: M14 melanoma
TGI: > 100 µM
--
molecule: C[C@H]1CCC/C=C/[C@@H]2C[C@H](O)C[C@H]2[C@H](O)C(O)C(O)C(=O)O1 (stereo not given in full)
target_entity: M14 melanoma
TGI: > 100 µM

Ask: Dear colleague, I am looking for the recorded TGI of the following molecule: CC(=O)/C=C1/C(=O)C(CC(C)C)=C1CC(C)C
Result: > 100 µM

Ask: Next record, please: CC(C)(C)C1CC[C@H](O)[C@H]([C@@H](O)CC2CC(=O)N(c3ccccc3)C(=O)C2)C1 (stereo not given in full)
Result: > 100 µM

Ask: Next record, please: COc1cccc(C2=C(c3cn(C)c4c(C)cccc34)C(=O)NC2=O)c1
Result: > 25 µM

Ask: Next record, please: COc1cc2c(c(OC)c1OC)[C@@H]1CCCCC[C@@H]1CCC2=O
Result: > 100 µM

Ask: Next record, please: CCOc1ccc(NC(=O)/C=C/c2ccco2)cc1
Result: > 100 µM

Ask: Next record, please: Cc1ccc2c(n1)C(=O)c1cc(C)c(C)cc1C2=O
Result: > 100 µM

Ask: Next record, please: O=C(CC(=O)n1nc(-c2ccccc2)c(N=Nc2ccc([N+](=O)[O-])cc2)c1-c1ccccc1)Nc1ccc(Cl)cc1
Result: > 100 µM

Ask: Next record, please: O=[N+]([O-])/C(C(Cl)=C(Cl)Cl)=C(\NCc1ccccc1)Sc1ccccc1
Result: > 100 µM

Ask: Next record, please: COc1cc2c(/C=C3/C(=O)Nc4cc(C)c(O)cc43)c(Cl)[nH]c2cc1C
Result: 5.89 µM

Ask: Next record, please: COc1ccc(C(=O)c2no[n+]([O-])c2C(=O)c2ccc(OC)cc2)cc1
Result: 11.7 µM

Ask: Next record, please: O=c1oc2cc(O)ccc2cc1-c1nc2ccccc2o1
Result: > 100 µM

Ask: Next record, please: NC(=O)c1c(-c2ccccc2)c(-c2ccccc2)cc2c(=O)c3ccccc3[nH]c12
Result: > 100 µM

Ask: Next record, please: CC(=O)OC1CCC2(C)C(=CCC3C2CCC2(C)C3CC3OC4(CCC(C)CN4)C(C)C32)C1 (stereo not given)
Result: > 100 µM

Ask: Next record, please: CN(C)c1ccc(-c2nc(N)nc3c2CCCC3)cc1
Result: > 100 µM
